Each recorded value in this set is attributed to ChEMBL document CHEMBL3885861.

organism: Rattus norvegicus; test: Open TG-GATES - Regimen: Daily Repeat; type: toxicity, organism-based, Sprague-Dawley; parameters: regimen Daily Repeat, gender Male, age 6 weeks; details: in vivo, po, 1000 mg/kg, […], tissue Blood, route gavage, dose level High, time 14 day
Would you mind labelling by RBC? At or over 700 x10_4/ul is True, under is False.

item_smiles=CN/C(=N/CCSCc1nc[nH]c1C)NC#N group_label=True

Now consider a different compound.
Asked: Answer whether RBC of CCOc1ccc(NC(C)=O)cc1 is greater than or equal to 700 x10_4/ul.
Given back: False

* * *

species on record: Rattus norvegicus; assay: Open TG-GATES - Regimen: Daily Repeat; format: toxicity, organism-based, Sprague-Dawley; design: regimen Daily Repeat, gender Male, age 6 weeks; settings: in vivo, po, 100 mg/kg, […], tissue Plasma, route gavage, dose level Low, time 14 day
Endpoint name: K (meq/L)
One number for each entry, in meq/L.

compound="CN/C(=N/CCSCc1nc[nH]c1C)NC#N [CIMETIDINE]" endpoint_name=K test_result=4
compound="CCOc1ccc(NC(C)=O)cc1 [PHENACETIN]" endpoint_name=K test_result=4.2
compound="CNC(=C[N+](=O)[O-])NCCSCc1ccc(CN(C)C)o1 [RANITIDINE]" endpoint_name=K test_result=3.9
compound="COC(=O)C1=C(C)NC(C)=C(C(=O)OC)C1c1ccccc1[N+](=O)[O-] [NIFEDIPINE]" endpoint_name=K test_result=4.2

Look up K for the entries below, preserving their order.
1. Cc1nnc2n1-c1ccc(Cl)cc1C(c1ccccc1Cl)=NC2 [TRIAZOLAM]
2. O=C(OC[C@H]1O[C@@H](OC(=O)c2cc(O)c(O)c(OC(=O)c3cc(O)c(O)c(O)c3)c2)[C@H](OC(=O)c2cc(O)c(O)c(OC(=O)c3cc(O)c(O)c(O)c3)c2)[C@@H](OC(=O)c2cc(O)c(O)c(OC(=O)c3cc(O)c(O)c(O)c3)c2)[C@@H]1OC(=O)c1cc(O)c(O)c(OC(=O)c2cc(O)c(O)c(O)c2)c1)c1cc(O)c(O)c(OC(=O)c2cc(O)c(O)c(O)c2)c1 [TANNIC ACID]

Given back:
3.8
4.2

* * *

species: Rattus norvegicus; assay: Open TG-GATES - Regimen: Single; type: toxicity, organism-based, Sprague-Dawley; set-up: regimen Single, gender Male, age 6 weeks; conditions: in vivo, po, 1000 mg/kg, 6 h, tissue Plasma, route gavage, dose level High
Would you mind labelling by LDH? At or over 90 IU/L is fulfilled, under is not fulfilled.

item_smiles=COC(=O)C1=C(C)NC(C)=C(C(=O)OC)C1c1ccccc1[N+](=O)[O-] group_label="not fulfilled"
item_smiles=O=C(OC[C@H]1O[C@@H](OC(=O)c2cc(O)c(O)c(OC(=O)c3cc(O)c(O)c(O)c3)c2)[C@H](OC(=O)c2cc(O)c(O)c(OC(=O)c3cc(O)c(O)c(O)c3)c2)[C@@H](OC(=O)c2cc(O)c(O)c(OC(=O)c3cc(O)c(O)c(O)c3)c2)[C@@H]1OC(=O)c1cc(O)c(O)c(OC(=O)c2cc(O)c(O)c(O)c2)c1)c1cc(O)c(O)c(OC(=O)c2cc(O)c(O)c(O)c2)c1 group_label="not fulfilled"
item_smiles=Cc1nnc2n1-c1ccc(Cl)cc1C(c1ccccc1Cl)=NC2 group_label="not fulfilled"

Asked: Answer whether LDH of CNC(=C[N+](=O)[O-])NCCSCc1ccc(CN(C)C)o1 is greater than or equal to 90 IU/L.
Given back: fulfilled

Asked: Now consider CN/C(=N/CCSCc1nc[nH]c1C)NC#N and answer again.
Given back: fulfilled
